Target: hWRN(519-1227)_C-H3CV-GFP-10His (Homo sapiens, UniProt Q14191)
Sequence (Q14191 519-1227): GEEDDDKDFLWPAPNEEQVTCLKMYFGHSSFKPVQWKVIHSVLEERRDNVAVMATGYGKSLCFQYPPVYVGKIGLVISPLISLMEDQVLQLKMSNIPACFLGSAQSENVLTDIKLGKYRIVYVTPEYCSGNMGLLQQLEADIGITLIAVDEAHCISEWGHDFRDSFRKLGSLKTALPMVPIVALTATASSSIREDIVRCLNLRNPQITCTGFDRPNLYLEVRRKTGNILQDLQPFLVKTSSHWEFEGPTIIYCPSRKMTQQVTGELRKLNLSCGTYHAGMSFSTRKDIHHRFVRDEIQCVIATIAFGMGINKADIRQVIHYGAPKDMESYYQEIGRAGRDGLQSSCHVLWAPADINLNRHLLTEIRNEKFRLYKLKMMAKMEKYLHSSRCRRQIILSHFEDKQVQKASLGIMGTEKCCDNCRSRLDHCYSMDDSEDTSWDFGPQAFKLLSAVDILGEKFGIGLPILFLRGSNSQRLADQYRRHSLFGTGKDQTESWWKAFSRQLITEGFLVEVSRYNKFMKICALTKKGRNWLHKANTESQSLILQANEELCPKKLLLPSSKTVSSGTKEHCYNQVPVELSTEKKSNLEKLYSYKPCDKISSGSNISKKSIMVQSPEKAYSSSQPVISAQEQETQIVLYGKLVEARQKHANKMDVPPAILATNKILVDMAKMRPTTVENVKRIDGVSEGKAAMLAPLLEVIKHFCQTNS
Assay: Helicase Assay for WRN Inhibition (ATP-dependent, fluorescence based)
Settings: WRN Helicase IC50, 30 min preincubation with ATP, 30 min reaction
Consider the following compounds; for each one, report its pIC50.
// field semantics: pIC50 = negative decimal log of concentration (mol/L)

Name the recorded pIC50 for CO[C@H](C)[C@@H](/C=C/S(C)(=O)=O)NC(=O)c1cnc(C(C)(C)C)nc1Oc1ccccc1 [Example 69] .
5.47

What about this compound? C[C@@H](/C=C/S(C)(=O)=O)NC(=O)c1cnc(CC2(C)CC2)nc1Oc1ccccc1 [Example 40]
5.57

Next up: C[C@@H](/C=C/S(C)(=O)=O)NC(=O)c1ccc(C(C)(F)F)nc1Oc1ccccc1 [Example 232]
6.52

What do you have for CS(=O)(=O)/C=C/[C@@H](NC(=O)c1cnc(C(F)C2CC2)nc1Oc1ccccc1)C1CC1 (stereo partly shown) [Example 37] ?
6.62

Ok, now CC(C)(C)c1ncc(C(=O)NC2(C=CS(C)(=O)=O)CC2)c(Oc2ccccc2)n1 (racemic) [Example 59]
4.27

Next record, please: C[C@@H](/C=C/S(C)(=O)=O)NC(=O)c1cnc(C2(C)CC2)nc1Oc1ccccc1 [Example 38]
6.36

Can you check C[C@@H](/C=C/S(C)(=O)=O)NC(=O)c1cnc(C2(c3ccccc3)CC2)nc1Oc1ccccc1 [Example 42] next?
5.77

###

Target: hWRN(519-1227)_C-H3CV-GFP-10His (Homo sapiens, UniProt Q14191)
Assay: Helicase Assay for WRN Inhibition (ATP-dependent, fluorescence based)
Conditions: WRN Helicase IC50, 30 min preincubation with ATP, 30 min reaction
pIC50: −log10 of the molar value.
Consider the reported pIC50 of an entry and match it to a band in range A = under 5, range B = from 5 up to 6, range C = 6 and over

Returns: class label. Input: `C[C@@H](/C=C/S(C)(=O)=O)NC(=O)c1cnc(CC2CCC2)nc1Oc1ccccc1`
range B

Would you kindly repeat that for `CC(F)(F)c1nc(Oc2ccccc2)c(C(=O)N[C@H](/C=C/S(C)(=O)=O)C2CC2)cc1F` ?
range C

Then `C[C@@H](/C=C/S(C)(=O)=O)NC(=O)c1cnc(C2CC2)nc1O[C@H]1C[C@H](Cl)C1` ?
range A

`CO[C@H](C)[C@@H](/C=C/S(C)(=O)=O)NC(=O)c1cnc(C2CC2)nc1Oc1ccccc1` ?
range A

###

I'd be grateful if you could share measured IC50 for these entries.
Target: WRN C727 (Homo sapiens)
Construct: endogenous in cells; host or cells: OCI-AML2
Sequence (Q14191 whole entry): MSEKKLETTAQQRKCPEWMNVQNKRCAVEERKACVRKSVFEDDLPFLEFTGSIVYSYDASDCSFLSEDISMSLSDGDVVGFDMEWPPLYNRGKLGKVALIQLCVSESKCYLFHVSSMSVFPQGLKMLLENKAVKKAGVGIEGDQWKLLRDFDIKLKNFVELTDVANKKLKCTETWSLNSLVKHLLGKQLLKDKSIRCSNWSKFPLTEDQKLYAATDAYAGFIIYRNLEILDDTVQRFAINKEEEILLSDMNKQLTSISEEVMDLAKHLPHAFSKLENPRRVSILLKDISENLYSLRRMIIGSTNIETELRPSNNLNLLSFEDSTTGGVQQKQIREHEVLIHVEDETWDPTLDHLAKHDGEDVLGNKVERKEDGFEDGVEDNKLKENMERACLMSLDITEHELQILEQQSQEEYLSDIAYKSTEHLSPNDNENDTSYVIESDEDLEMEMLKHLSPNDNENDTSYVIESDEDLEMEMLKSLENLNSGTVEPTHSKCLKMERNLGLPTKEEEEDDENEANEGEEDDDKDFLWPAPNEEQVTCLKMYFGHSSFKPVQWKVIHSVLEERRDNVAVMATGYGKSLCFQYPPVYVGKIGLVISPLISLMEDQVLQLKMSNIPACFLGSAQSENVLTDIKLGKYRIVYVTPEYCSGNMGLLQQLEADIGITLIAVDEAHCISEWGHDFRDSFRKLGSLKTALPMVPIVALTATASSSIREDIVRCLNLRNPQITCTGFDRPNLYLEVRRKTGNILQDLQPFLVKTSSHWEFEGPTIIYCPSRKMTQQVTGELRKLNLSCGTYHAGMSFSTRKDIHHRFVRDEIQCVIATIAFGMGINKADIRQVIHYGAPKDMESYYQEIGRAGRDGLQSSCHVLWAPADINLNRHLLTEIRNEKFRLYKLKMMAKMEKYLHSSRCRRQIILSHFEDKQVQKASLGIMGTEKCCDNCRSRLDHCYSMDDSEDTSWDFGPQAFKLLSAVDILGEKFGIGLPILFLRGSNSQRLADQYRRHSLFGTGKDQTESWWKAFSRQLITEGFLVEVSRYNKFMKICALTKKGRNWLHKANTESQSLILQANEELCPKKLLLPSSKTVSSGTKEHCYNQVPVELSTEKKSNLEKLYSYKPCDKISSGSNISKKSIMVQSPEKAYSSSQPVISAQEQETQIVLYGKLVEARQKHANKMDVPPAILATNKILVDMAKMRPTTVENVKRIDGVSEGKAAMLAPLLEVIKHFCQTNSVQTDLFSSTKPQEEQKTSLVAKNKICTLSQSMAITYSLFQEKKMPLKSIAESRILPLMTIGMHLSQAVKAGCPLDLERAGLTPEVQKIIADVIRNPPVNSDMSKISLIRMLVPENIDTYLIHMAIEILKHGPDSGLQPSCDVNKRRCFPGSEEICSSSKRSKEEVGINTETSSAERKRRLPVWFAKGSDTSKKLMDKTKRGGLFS
Assay: Target engagement, in situ (cell), OCI-AML2
Type: cell-based
Conditions: OCI-AML2 cells, read-out: OCI-AML2 WRN C727 TE50 in situ (cell)
// return numeric value only (unit: nM, not printed)

Field: IC50 (WRN C727 (Homo sapiens)). Entry: `CS(=O)(=O)C=C1CN(C(=O)c2cnc(C3CC3)nc2Oc2ccccc2)C1`
490

Moving on to the next molecule: `CS(=O)(=O)/C=C/[C@@H](NC(=O)c1cnc(C(F)(F)C(F)(F)F)nc1Oc1ccccc1)C1CC1`
16

Now the molecule `C[C@@H](/C=C/S(C)(=O)=O)NC(=O)c1cnc(C2CCCC2)nc1Oc1cc(Cl)cc(Cl)c1`
20000

What do you get for `C=C(C#N)CNC(=O)c1cnc(C(F)(F)C2CC2)nc1Oc1ccccc1` ?
3960

Likewise for `C[C@@H](/C=C/S(C)(=O)=O)NC(=O)c1cnc(C2CC2)nc1OC1CCCC1` ?
800

Next molecule up: `CS(=O)(=O)/C=C/[C@@H](NC(=O)c1cnc(C2(F)CC2)nc1Oc1ccccc1)C1CC1`
150

Please answer likewise for `C[C@@H](/C=C/S(C)(=O)=O)NC(=O)c1cnc(-c2ccccc2)nc1Oc1ccccc1`
20400

Then what about the molecule `C[C@@H](/C=C/S(C)(=O)=O)NC(=O)c1cnc(CC2CC2)nc1Oc1ccccc1` ?
290

Next: `C[C@@H](/C=C/S(C)(=O)=O)NC(=O)c1cnc(C2CCCCC2)nc1Oc1ccccc1`
1140

Same lookup for `C[C@@H](/C=C/S(C)(=O)=O)NC(=O)c1cnc(C(C)(C)C)nc1OC1CCCC1` , please.
160
